biological target: MRGPRX4 (Homo sapiens, UniProt Q96LA9); experiment: MRGPRX4 activation, Fluo-8 Ca2+ FLIPR assay in HEK293T cells stably expressing MRGPRX4; format: cell-based; design: key: fluorescence change dF/F0; details: E3-7, Conc. (Log[M]) −4.5
Sequence (Q96LA9 whole entry): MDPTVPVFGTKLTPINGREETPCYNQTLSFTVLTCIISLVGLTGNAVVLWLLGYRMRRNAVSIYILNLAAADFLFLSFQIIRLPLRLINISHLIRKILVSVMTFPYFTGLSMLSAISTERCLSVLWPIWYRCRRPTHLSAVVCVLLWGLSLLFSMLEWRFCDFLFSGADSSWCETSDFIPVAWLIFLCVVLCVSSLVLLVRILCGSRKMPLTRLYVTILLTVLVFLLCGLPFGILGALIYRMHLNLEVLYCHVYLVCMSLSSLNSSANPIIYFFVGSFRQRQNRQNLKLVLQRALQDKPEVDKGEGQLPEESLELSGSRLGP
ASSAY METRIC: MRGPRX4 activation, Ave.

Solved cases (3 shown):
COMPOUND	STUDY SYSTEM	ASSAY METRIC	RESULT
CC[C@H]1[C@@H](O)[C@@H]2[C@H](CC[C@]3(C)[C@@H]([C@H](C)CCNC(=O)C(=O)NS(=O)(=O)c4cc(F)cc(F)c4)CC[C@@H]23)[C@@]2(C)CCCC[C@@H]12	MRGPRX4 (Homo sapiens, UniProt Q96LA9)	MRGPRX4 activation, Ave.	−0.027
[2H]C1([2H])CC[C@@]2(C)[C@@H](C1)[C@@H](CC)[C@@H](O)[C@@H]1[C@@H]2CC[C@]2(C)[C@@H]([C@H](C)CCNC(=O)NS(=O)(=O)c3ccc(C(C)(C)CF)cc3)CC[C@@H]12	MRGPRX4 (Homo sapiens, UniProt Q96LA9)	MRGPRX4 activation, Ave.	−0.041
CC[C@H]1[C@@H](O)[C@@H]2[C@H](CC[C@]3(C)[C@@H]([C@H](C)CCNC(=O)NS(=O)(=O)c4cc(F)ccc4F)CC[C@@H]23)[C@@]2(C)CCCC[C@@H]12	MRGPRX4 (Homo sapiens, UniProt Q96LA9)	MRGPRX4 activation, Ave.	−0.027

Asked: Name the reported MRGPRX4 activation, Ave. value associated with the compound [2H]C1CC[C@@]2(C)[C@@H](C1)[C@@H](CC)[C@@H](O)[C@@H]1[C@@H]2CC[C@]2(C)[C@@H]([C@H](C)CCNC(=O)NS(=O)(=O)c3ccc(C(C)(C)CF)cc3)CC[C@@H]12 (stereo partly shown)
Given back: −0.054
